- test target: recombinant human AMPK complex, containing α2β1γ2 (Homo sapiens, UniProt P54646+Q9Y478)
- Construct: hsAMPKα2-552-His, hsAMPKβ1-2-270 and hsAMPKγ-2-569 respectively; hsAMPKβ1-2-270; hsAMPKγ-2-569; His (C)
- Sequence (P54646 2-552): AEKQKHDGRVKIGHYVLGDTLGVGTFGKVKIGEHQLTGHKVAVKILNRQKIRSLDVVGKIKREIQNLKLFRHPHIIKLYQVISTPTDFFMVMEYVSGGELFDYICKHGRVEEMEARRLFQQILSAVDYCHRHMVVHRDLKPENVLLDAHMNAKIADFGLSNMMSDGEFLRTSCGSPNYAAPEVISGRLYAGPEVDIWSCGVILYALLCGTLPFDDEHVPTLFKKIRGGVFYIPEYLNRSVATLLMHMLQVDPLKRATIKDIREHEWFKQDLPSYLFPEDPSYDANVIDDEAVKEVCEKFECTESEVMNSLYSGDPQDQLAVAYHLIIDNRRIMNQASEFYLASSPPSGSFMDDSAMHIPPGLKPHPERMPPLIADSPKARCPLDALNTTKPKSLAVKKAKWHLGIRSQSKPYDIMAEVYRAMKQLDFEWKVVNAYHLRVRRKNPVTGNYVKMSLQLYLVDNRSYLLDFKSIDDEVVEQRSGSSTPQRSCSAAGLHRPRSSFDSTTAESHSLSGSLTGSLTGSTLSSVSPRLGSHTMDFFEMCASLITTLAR
- Sequence (Q9Y478 2-270): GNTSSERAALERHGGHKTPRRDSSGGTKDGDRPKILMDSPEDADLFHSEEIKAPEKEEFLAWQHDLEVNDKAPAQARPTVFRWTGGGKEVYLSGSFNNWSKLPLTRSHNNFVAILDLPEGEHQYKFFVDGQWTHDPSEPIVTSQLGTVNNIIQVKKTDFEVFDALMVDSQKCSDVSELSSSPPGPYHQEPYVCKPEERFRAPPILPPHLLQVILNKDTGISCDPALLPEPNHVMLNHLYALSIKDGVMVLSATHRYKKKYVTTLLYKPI
- Sequence (Q9UGJ0 2-569 partner limits assumed): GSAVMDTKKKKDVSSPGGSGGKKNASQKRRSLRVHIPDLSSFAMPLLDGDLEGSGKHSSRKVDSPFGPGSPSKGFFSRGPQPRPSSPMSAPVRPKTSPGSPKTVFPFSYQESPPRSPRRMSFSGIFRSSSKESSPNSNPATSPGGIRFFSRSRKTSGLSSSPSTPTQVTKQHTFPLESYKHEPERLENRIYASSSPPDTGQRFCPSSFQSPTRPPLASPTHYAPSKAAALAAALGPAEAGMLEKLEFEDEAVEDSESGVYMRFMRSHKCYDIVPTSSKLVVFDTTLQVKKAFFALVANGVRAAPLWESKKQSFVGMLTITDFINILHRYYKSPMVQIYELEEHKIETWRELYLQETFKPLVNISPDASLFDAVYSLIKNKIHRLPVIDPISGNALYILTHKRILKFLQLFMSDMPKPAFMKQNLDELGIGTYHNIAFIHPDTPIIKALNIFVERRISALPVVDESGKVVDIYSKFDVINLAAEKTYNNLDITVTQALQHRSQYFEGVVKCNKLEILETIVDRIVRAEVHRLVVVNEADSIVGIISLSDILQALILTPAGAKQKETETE
- method description: AMPK in vitro activation assay (HTRF)
- run parameters: HTRF, recombinant human α2β1γ2 AMPK, 200 μM ATP, biotinylated ACC-CREBp peptide; repeat determinations on separate lines
Reported pEC50 by item:
Units for pEC50: none; it is -log10 of a concentration expressed in mol/L.

[
  {
    "compound": "Cc1cc(C(O)=C2C(=O)Nc3cc(Cl)c(-c4ccc(C#N)cc4)cc32)on1",
    "measurement": 6.15
  },
  {
    "compound": "Cc1[nH]c(=O)sc1C(O)=C1C(=O)Nc2cc(Cl)c(-c3ccc(N4CCOCC4)cc3)cc21",
    "measurement": 7.44
  },
  {
    "compound": "Cc1cc(C(O)=C2C(=O)Nc3cc(Cl)c(-c4ccc(Cl)cc4)cc32)on1",
    "measurement": 5.40
  }
]

**Query** I'd like to know its pEC50. The compound in question is Cc1cc(C([O-])=C2C(=O)Nc3cc(Cl)c(-c4ccc(N(C)C)cc4)cc32)on1.[Na+] [Compound 2, sodium salt]
**Result** 7.28

###

- test target: recombinant human AMPK complex, containing α2β1γ2 (Homo sapiens, UniProt P54646+Q9Y478)
- Construct: hsAMPKα2-552-His, hsAMPKβ1-2-270 and hsAMPKγ-2-569 respectively; hsAMPKβ1-2-270; hsAMPKγ-2-569; His (C); made in house; host or cells: Spodoptera frugiperda Sf21 (baculovirus)
- method description: AMPK in vitro activation assay (HTRF)
- Assay type: biochemical
- run parameters: potentiation of AMPK activity as percent over the basal signal (without compound)
measured attribute: Emax (%)
Numeric answer only, unit % assumed.

[
  {
    "compound": "COc1cc(C(O)=C2C(=O)Nc3cc(Cl)c(-c4ccc(OCCCN5CCOCC5)cc4)cc32)on1 [Compound 99]",
    "unit spec": "%",
    "Emax": 187
  },
  {
    "compound": "COc1ccc(C(O)=C2C(=O)Nc3cc(F)c(-c4ccc(C5(CO)CC5)cc4)cc32)cc1F [Compound 125]",
    "unit spec": "%",
    "Emax": 230
  },
  {
    "compound": "O=C1Nc2cc(Cl)c(-c3ccc(C4(CO)CC4)cc3F)cc2C1=C(O)c1cc(C2CC2)no1 [Compound 113]",
    "unit spec": "%",
    "Emax": 126
  },
  {
    "compound": "CCc1ccc(-c2cc3c(cc2Cl)NC(=O)C3=C(O)c2cc(C)no2)cc1 [Compound 64]",
    "unit spec": "%",
    "Emax": 141
  },
  {
    "compound": "COc1cc(C(O)=C2C(=O)Nc3cc(Cl)c(-c4ccc(C5CC(OC)C5)cc4)cc32)on1 (stereo not shown) [Compound 165]",
    "unit spec": "%",
    "Emax": 218
  },
  {
    "compound": "Cc1cc(C(O)=C2C(=O)Nc3cc(Cl)c(-c4ccc(C5(CO)CC5)cc4)cc32)on1 [Compound 6]",
    "unit spec": "%",
    "Emax": 186
  }
]

**Query** I'm curious: which Emax was measured for Cc1cc(C(O)=C2C(=O)Nc3cc(Cl)c(-c4ccc(O)cc4)cc32)on1 [Compound 33] tested on recombinant human AMPK complex, containing α2β1γ2 (Homo sapiens, UniProt P54646+Q9Y478)?
**Result** 120

**Query** I'm curious: which Emax was measured for COc1cc(C(O)=C2C(=O)Nc3cc(Cl)c(-c4ccc(OC5CCC(O)CC5)cc4)cc32)on1 (stereo not shown) [Compound 152] tested on recombinant human AMPK complex, containing α2β1γ2 (Homo sapiens, UniProt P54646+Q9Y478)?
**Result** 223

**Query** I'm curious: which Emax was measured for O=C1Nc2cc(Cl)c(-c3ccc(C4(CO)CC4)cc3)cc2C1=C(O)c1cc(Br)no1 [Compound 73] tested on recombinant human AMPK complex, containing α2β1γ2 (Homo sapiens, UniProt P54646+Q9Y478)?
**Result** 148

**Query** I'm curious: which Emax was measured for Cc1ncc(C(O)=C2C(=O)Nc3cc(Cl)c(-c4ccc(C5(CO)CC5)cc4)cc32)s1 [Compound 75] tested on recombinant human AMPK complex, containing α2β1γ2 (Homo sapiens, UniProt P54646+Q9Y478)?
**Result** 142

**Query** I'm curious: which Emax was measured for Cc1cc(C(O)=C2C(=O)Nc3cc(Cl)c(-c4ccc(C5(CO)CC5)cc4)cc32)sn1 [Compound 23] tested on recombinant human AMPK complex, containing α2β1γ2 (Homo sapiens, UniProt P54646+Q9Y478)?
**Result** 158

###

- test target: recombinant human AMPK complex, containing α2β1γ2 (Homo sapiens, UniProt P54646+Q9Y478)
- Construct: hsAMPKα2-552-His, hsAMPKβ1-2-270 and hsAMPKγ-2-569 respectively; hsAMPKβ1-2-270; hsAMPKγ-2-569; His (C)
- method description: AMPK in vitro activation assay (HTRF)
- run parameters: HTRF, recombinant human α2β1γ2 AMPK, 200 μM ATP, biotinylated ACC-CREBp peptide; repeat determinations on separate lines
measured attribute: pEC50
Units for pEC50: none; it is -log10 of a concentration expressed in mol/L.

Answered cases to consult:
[
  {
    "smiles representation": "O=C1Nc2cc(Cl)c(-c3ccc(N4CCOCC4)cc3)cc2C1=C(O)c1cccc(O)c1",
    "test target": "recombinant human AMPK complex, containing α2β1γ2 (Homo sapiens, UniProt P54646+Q9Y478)",
    "pEC50": 6.72
  },
  {
    "smiles representation": "COc1cc(C(O)=C2C(=O)Nc3cc(Cl)c(-c4ccc(N5CCC5)cc4)cc32)on1",
    "test target": "recombinant human AMPK complex, containing α2β1γ2 (Homo sapiens, UniProt P54646+Q9Y478)",
    "pEC50": 9.15
  },
  {
    "smiles representation": "Cc1nnc(C(O)=C2C(=O)Nc3cc(Cl)c(-c4ccc(N5CCOCC5)cc4)cc32)o1",
    "test target": "recombinant human AMPK complex, containing α2β1γ2 (Homo sapiens, UniProt P54646+Q9Y478)",
    "pEC50": 8.05
  }
]

Read the next record carefully.
**Query** I'm curious: which pEC50 was measured for O=C1Nc2cc(Cl)c(-c3ccc(N4CCOCC4)cc3)cc2C1=C(O)c1cc(O)no1 tested on recombinant human AMPK complex, containing α2β1γ2 (Homo sapiens, UniProt P54646+Q9Y478)?
**Result** 8.70

###

- test target: recombinant human AMPK complex, containing α2β1γ2 (Homo sapiens, UniProt P54646+Q9Y478)
- Construct: hsAMPKα2-552-His, hsAMPKβ1-2-270 and hsAMPKγ-2-569 respectively; hsAMPKβ1-2-270; hsAMPKγ-2-569; His (C)
- method description: AMPK in vitro activation assay (HTRF)
- run parameters: HTRF, recombinant human α2β1γ2 AMPK, 200 μM ATP, biotinylated ACC-CREBp peptide; repeat determinations on separate lines
Where a name gives a salt, the structure may show the parent alone.
Reported log10 EC50 by item:
// units: nM (pre-log); metric: EC50; scale: log10

Answered cases to consult:
[
  {
    "molecule": "Cc1cc(C(O)=C2C(=O)Nc3cc(Cl)c(-c4ccc(N(C)C)cc4)cc32)on1",
    "log10 EC50": 1.32
  },
  {
    "molecule": "COc1ccc(C(O)=C2C(=O)Nc3cc(Cl)c(-c4ccc(N5CCOCC5)cc4)cc32)cn1",
    "log10 EC50": 0.78
  }
]

**Query** I'd like to know its log10 EC50. The molecule in question is COc1cc(C(O)=C2C(=O)Nc3cc(F)c(-c4ccc(-c5cccc(OC)c5O)cc4)cc32)on1
**Result** 0.30

**Query** I'd like to know its log10 EC50. The molecule in question is COc1cc(C(O)=C2C(=O)Nc3cc(Cl)c(-c4ccc(C5CCN(CC(F)(F)F)C5)cc4)cc32)on1 (stereo not shown) [Compound 167, hydrochloride]
**Result** 2.07

**Query** I'd like to know its log10 EC50. The molecule in question is COc1cc(C(O)=C2C(=O)Nc3cc(Cl)c(-c4ccc(C5(OC)CCC5)cc4)cc32)on1
**Result** 0.78

**Query** I'd like to know its log10 EC50. The molecule in question is COc1cc(C(O)=C2C(=O)Nc3cc(Cl)c(-c4ccc(N5CCCC5)cc4)cc32)on1
**Result** 1.20

**Query** I'd like to know its log10 EC50. The molecule in question is Cc1cc(C(O)=C2C(=O)Nc3cc(Cl)c(-c4ccc(-c5ccncc5)cc4)cc32)on1 [Compound 35, hydrochloride]
**Result** 1.36
